# credit: PubChem BioAssay

Tested on: PRMT1 (protein arginine N-methyltransferase 1)
Experiment: PRMT1 binders on small-molecule microarrays, primary screen, biochemical, small-molecule microarray, 635 nm fluorescence (AID 1088)
Conditions: small-molecule microarray binding, higher = more signal
Some compounds, each annotated with its measured composite z-score.
Measured property: composite z-score

INSERT INTO results (compound, target_or_system, assay_result) VALUES
  ('COC(OC)[C@@H](C)[C@H](OC)[C@@H](C)[C@H](OC)c1ccccc1', 'PRMT1 (protein arginine N-methyltransferase 1)', -0.478),
  ('CCOC(=O)[C@H](Cc1ccccc1)NC(=O)CCC1CC(OC(=O)NCCc2ccc(F)cc2)CC2(CCCC(COC(=O)NCCOc3ccccc3)O2)O1 (stereo partly specified)', 'PRMT1 (protein arginine N-methyltransferase 1)', 1.53),
  ('COc1ccc(COC(=O)NN=C2C[C@@H](O)[C@@H](O)[C@@H]3[C@@H]4C(=O)N(Cc5ccc6c(c5)OCO6)C(=O)[C@@H]4CC[C@H]23)cc1', 'PRMT1 (protein arginine N-methyltransferase 1)', 0.041),
  ('CCOC(=O)CCN1C(=O)[C@H]2[C@H]3[C@H](O)[C@H](O)CC(=O)[C@@H]3CC[C@H]2C1=O', 'PRMT1 (protein arginine N-methyltransferase 1)', 0.58),
  ('CC(C)[C@H](NC(=O)OC(C)(C)C)[C@@H](O)CC(=O)C(C)(C)C', 'PRMT1 (protein arginine N-methyltransferase 1)', -0.377),
  ('C=CC[C@@H]1C=C[C@H](ON=C(C)CCN2CCCCc3nc(C)c(C)cc32)[C@@H](CO)O1', 'PRMT1 (protein arginine N-methyltransferase 1)', 1.47),
  ('OC[C@H]1O[C@H](C#Cc2ccccc2)C=C[C@@H]1O', 'PRMT1 (protein arginine N-methyltransferase 1)', 0.232),
  ('CCCNC(=O)OC[C@H]1O[C@H](CCON=C[C@@H](NS(=O)(=O)c2ccc(C)cc2)[C@H](C)C=CCC(=O)OC)C=C[C@@H]1Oc1ccc(OC)cc1', 'PRMT1 (protein arginine N-methyltransferase 1)', 0.409),
  ('CO[C@H]1C[C@@H]2C[C@H](O)CC(CC(=O)O[C@@H](C=CCC(C)C)C[C@@H]3CC[C@H](C)[C@@H](C1)O3)O2', 'PRMT1 (protein arginine N-methyltransferase 1)', 1.54),
  ('CC(CCC(=O)OC[C@H]1O[C@H](C#Cc2ccccc2)C=C[C@@H]1Oc1ccc(C)cc1)=NOC(C)CN1CCCc2nc(C)c(C)cc21 (stereo partly specified)', 'PRMT1 (protein arginine N-methyltransferase 1)', 1.33),
  ('CC(C)CON=C1C[C@@H](O)[C@@H](O)[C@@H]2[C@@H]3C(=O)N(c4ccc(F)cc4F)C(=O)[C@@H]3CC[C@@H]12', 'PRMT1 (protein arginine N-methyltransferase 1)', 0.601),
  ('CCc1cc2c(nc1CC)CCN(CCC(C)=NOCC[C@@H]1C=C[C@H](OC(C)=O)[C@@H](COC(C)=O)O1)C2', 'PRMT1 (protein arginine N-methyltransferase 1)', 1.54),
  ('CCOC(=O)[C@H](Cc1ccccc1)NC(=O)CCC1CC(OC(=O)NCc2ccc3c(c2)OCO3)CC2(CCCC(COC(=O)NCCOc3ccccc3)O2)O1 (stereo partly specified)', 'PRMT1 (protein arginine N-methyltransferase 1)', 1.48),
  ('C[C@H]1CC[C@H]2C(=O)N[C@H](Cc3ccccc3)C(=O)N2[C@@H]1c1ccccc1', 'PRMT1 (protein arginine N-methyltransferase 1)', -0.0481),
  ('C[C@]12CCC3c4ccc(OCC5CO5)cc4CCC3C1CC[C@@H]2O (stereo partly specified)', 'PRMT1 (protein arginine N-methyltransferase 1)', 0.205),
  ('CCOC(=O)[C@H](CC(C)C)NC(=O)CCC1CC(OC(=O)NCc2ccc3c(c2)OCO3)CC2(CCCC(COC(=O)NCCOc3ccccc3)O2)O1 (stereo partly specified)', 'PRMT1 (protein arginine N-methyltransferase 1)', 1.17);
